# key: entry, value: EC50 group, cGMP in GTM-3 cells
Target: T1, natriuretic peptide receptor-B (human)
T1 chain: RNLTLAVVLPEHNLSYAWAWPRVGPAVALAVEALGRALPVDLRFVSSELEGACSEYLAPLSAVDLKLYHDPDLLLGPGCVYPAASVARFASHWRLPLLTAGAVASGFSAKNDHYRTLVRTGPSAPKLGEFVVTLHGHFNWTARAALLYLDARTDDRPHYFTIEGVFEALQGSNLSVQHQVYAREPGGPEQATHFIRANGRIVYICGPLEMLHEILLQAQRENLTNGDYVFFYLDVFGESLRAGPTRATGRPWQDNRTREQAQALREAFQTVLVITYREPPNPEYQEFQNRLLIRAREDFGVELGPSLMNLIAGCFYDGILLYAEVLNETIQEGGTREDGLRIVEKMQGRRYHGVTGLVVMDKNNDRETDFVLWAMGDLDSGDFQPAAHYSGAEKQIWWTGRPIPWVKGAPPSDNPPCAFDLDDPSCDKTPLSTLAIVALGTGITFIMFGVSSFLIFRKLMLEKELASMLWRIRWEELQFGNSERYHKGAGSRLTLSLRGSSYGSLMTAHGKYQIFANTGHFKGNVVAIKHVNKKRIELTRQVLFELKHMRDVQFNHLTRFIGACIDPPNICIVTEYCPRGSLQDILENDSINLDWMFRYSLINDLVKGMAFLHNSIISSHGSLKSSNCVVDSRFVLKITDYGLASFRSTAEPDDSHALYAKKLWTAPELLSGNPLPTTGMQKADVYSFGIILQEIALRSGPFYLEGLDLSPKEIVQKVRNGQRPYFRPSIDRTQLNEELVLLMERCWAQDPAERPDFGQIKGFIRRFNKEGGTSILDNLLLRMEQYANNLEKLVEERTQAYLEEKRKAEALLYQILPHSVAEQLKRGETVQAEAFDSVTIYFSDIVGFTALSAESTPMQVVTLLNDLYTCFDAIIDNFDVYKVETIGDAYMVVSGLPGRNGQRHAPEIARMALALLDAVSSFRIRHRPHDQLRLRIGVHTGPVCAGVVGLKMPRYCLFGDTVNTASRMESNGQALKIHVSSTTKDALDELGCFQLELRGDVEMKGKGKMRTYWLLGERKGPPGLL
Experiment: cell-based or functional assay
Numbered stars: 1 amine (or outer) side, 2 acyl side, 3 side chain; on linkers, the order of the positions; unused ones are H or OH. Square brackets hold non-standard residues; d marks the D form. Ends that are not written are not given here. * marks the point of attachment. Pro(trans-4-NH2) = O=C([C@@H]1C[C@@H](N[*:3])CN1[*:1])[*:2]; Sni = (S)-nipecotic acid, O=C([C@H]1CCCN([*:1])C1)[*:2]; dDap(Me2) = CN(C)C[C@@H](N)C(=O)O; Hyp = O=C(O)[C@@H]1C[C@@H](O)CN1; NMeL = CN[C@@H](CC(C)C)C(=O)O; Octanoyl = CCCCCCCC(=O)*; 3816 = not defined here; 504 = not defined here; Che = not defined here; Occ = octanoic acid

BINDER | EC50 group, cGMP in GTM-3 cells
XAFXLXXDRI (Occ-ala-Phe-orn(Me2)-Leu-Hyp-Nml-Asp-Arg-Ile-NH2) [JAL-1288] | ≤ 1 µM
[Occ][Sni]FGL[Hyp][NMeL]DP[Che] (reading uncertain; also: printed as Occ-Sni-Phe-Gly-Leu-Hyp-Nml-Asp-Pro-Che) [JAL-1600] | ≤ 5 µM
Octanoyl-[Sni]F[dDap(Me2)]L[Pro(trans-4-NH2)][NMeL]VRI-NH2 [JAL-1405] | ≤ 1 µM
Octanoyl-[dA][dA]FGLKLDR[3816] (reading uncertain; also: printed as Occ-ala-ala-Phe-Gly-Leu-Lys-Leu-Asp-Arg-3816) [JAL-0749] | ≤ 15 µM
Octanoyl-AAFGLKLDR[504] (not fully specified (some residues); printed as Occ-ala-ala-Phe-Gly-Leu-Lys-Leu-Asp-Arg-504; reading uncertain) [JAL-0790] | ≤ 15 µM
